Biological target: recombinant alpha-glucosidase I (human full-length glucosidase I, Glu 1) (Homo sapiens, UniProt Q13724)
Construct: 6-His (C); made in house; host or cells: HEK-293T cells transduced with BacMam virus (virus raised in Sf9)
Sequence (Q13724 1-837): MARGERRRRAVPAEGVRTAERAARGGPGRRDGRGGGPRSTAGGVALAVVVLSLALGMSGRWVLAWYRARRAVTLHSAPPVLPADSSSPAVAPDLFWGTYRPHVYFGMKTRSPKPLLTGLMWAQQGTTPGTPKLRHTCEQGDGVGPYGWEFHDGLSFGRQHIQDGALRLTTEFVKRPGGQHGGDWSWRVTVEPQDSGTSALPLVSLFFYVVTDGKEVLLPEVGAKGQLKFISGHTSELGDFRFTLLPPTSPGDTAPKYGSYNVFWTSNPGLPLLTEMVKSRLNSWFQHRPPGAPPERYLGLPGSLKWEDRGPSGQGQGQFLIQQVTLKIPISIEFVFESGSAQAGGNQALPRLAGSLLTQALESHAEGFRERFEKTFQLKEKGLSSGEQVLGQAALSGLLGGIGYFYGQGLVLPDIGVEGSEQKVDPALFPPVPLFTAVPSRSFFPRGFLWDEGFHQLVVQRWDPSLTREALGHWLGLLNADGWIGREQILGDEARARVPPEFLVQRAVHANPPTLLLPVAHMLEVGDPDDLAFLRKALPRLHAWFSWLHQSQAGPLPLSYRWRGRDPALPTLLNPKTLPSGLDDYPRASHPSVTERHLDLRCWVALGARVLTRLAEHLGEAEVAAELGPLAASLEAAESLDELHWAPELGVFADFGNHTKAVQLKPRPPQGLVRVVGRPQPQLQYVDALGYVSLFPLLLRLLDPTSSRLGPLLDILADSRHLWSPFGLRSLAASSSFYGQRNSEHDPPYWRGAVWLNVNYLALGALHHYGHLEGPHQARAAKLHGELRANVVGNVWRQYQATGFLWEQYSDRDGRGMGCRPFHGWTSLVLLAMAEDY
Assay: Alpha-glucosidase I assay (Amplex Red glucose detection, synthetic trisaccharide substrate)
Format: biochemical
Conditions: Glucosidase 1; read-out: Glu 1 IC50
Please respond with reported pIC50 for every item in the list.
In simple prose, pIC50 is minus the logarithm base ten of a concentration in moles per litre.

Look up pIC50 for this compound: COc1cc(CC2CCOC2)cc(NCCCCCCN2C[C@H](O)[C@@H](O)[C@H](O)[C@H]2CO)c1 (stereo partly shown) 5.94

Look up pIC50 for this compound: COc1cc(NCCc2ccc(CCN3C[C@H](O)[C@@H](O)[C@H](O)[C@H]3CO)cc2)cc(C2=CCOCC2)c1 6.04

Look up pIC50 for this compound: COCCCCCN(CCCNc1ccc(N=[N+]=[N-])cc1[N+](=O)[O-])CCCN1C[C@H](O)[C@@H](O)[C@H](O)[C@H]1CO 5.65

Look up pIC50 for this compound: OC[C@@H]1[C@@H](O)[C@H](O)[C@@H](O)CN1Cc1cnc(CNc2cc(-c3ncccn3)cc(C3CC3)c2)cn1 5.73

Look up pIC50 for this compound: [N-]=[N+]=Nc1ccc(N2CC(OCCN3C[C@H](O)[C@@H](O)[C@H](O)[C@H]3CO)C2)c([N+](=O)[O-])c1 5.87

Look up pIC50 for this compound: COc1cc(NCCc2ccc(CCN3C[C@H](O)[C@@H](O)[C@H](O)[C@H]3CO)cc2)cc(-c2ccco2)c1 5.87

Look up pIC50 for this compound: Cc1cc(CN2CCOCC2)cc(NCc2ccc(CN3C[C@H](O)[C@@H](O)[C@H](O)[C@H]3CO)cc2)c1 6.39

Look up pIC50 for this compound: [N-]=[N+]=Nc1ccc(NCCn2cc(CCN3C[C@H](O)[C@@H](O)[C@H](O)[C@H]3CO)c3ccccc32)c([N+](=O)[O-])c1 6.43

Look up pIC50 for this compound: OC[C@@H]1[C@@H](O)[C@H](O)[C@@H](O)CN1Cc1ccc(CNc2cc(C3CC3)cc(N3CCOCC3)c2)cc1 6.70

Look up pIC50 for this compound: [N-]=[N+]=Nc1ccc(NCc2cccc(CN3C[C@H](O)[C@@H](O)[C@H](O)[C@H]3CO)c2)c([N+](=O)[O-])c1 7.17

Look up pIC50 for this compound: COc1ccc(CCCCCCCN2C[C@H](O)[C@@H](O)[C@H](O)[C@H]2CO)cc1 6.15

Look up pIC50 for this compound: OC[C@@H]1[C@@H](O)[C@H](O)[C@@H](O)CN1Cc1cccc(CNc2ccc(-c3ccc[nH]3)cc2)c1 7.16

Look up pIC50 for this compound: N#Cc1cc(NCc2cccc(CN3C[C@H](O)[C@@H](O)[C@H](O)[C@H]3CO)c2)cc(N2CCOCC2)c1 7.52

----------
molecular target: rat maltase (partially purified alpha-glucosidase from intestinal rat powder); assay: Intestinal alpha-glucosidase assay, maltose substrate (Glucose GO Kit)
Please respond with reported IC50 for every item in the list.
Response body: numeric value in nM, unit text excluded.

Kindly state the measured IC50 obtained for Cc1cc(NCc2ccc(CN3C[C@H](O)[C@@H](O)[C@H](O)[C@H]3CO)cc2)cc(-n2ccnn2)c1 with rat maltase (partially purified alpha-glucosidase from intestinal rat powder). 11

Kindly state the measured IC50 obtained for N#Cc1cc(-c2ncccn2)ccc1NCCCCCCN1C[C@H](O)[C@@H](O)[C@H](O)[C@H]1CO with rat maltase (partially purified alpha-glucosidase from intestinal rat powder). 10

Kindly state the measured IC50 obtained for Cc1cc(Br)cc(NCc2ccc(CN3C[C@H](O)[C@@H](O)[C@H](O)[C@H]3CO)cc2)c1 with rat maltase (partially purified alpha-glucosidase from intestinal rat powder). 2

Kindly state the measured IC50 obtained for COc1ccc(C#CCCCCCN2C[C@H](O)[C@@H](O)[C@H](O)[C@H]2CO)cc1 with rat maltase (partially purified alpha-glucosidase from intestinal rat powder). 146

Kindly state the measured IC50 obtained for O=C(O)c1cc(Cl)cc(NCCc2ccc(CCN3C[C@H](O)[C@@H](O)[C@H](O)[C@H]3CO)cc2)c1 with rat maltase (partially purified alpha-glucosidase from intestinal rat powder). 218

----------
biological target: recombinant alpha-glucosidase I (human full-length glucosidase I, Glu 1) (Homo sapiens, UniProt Q13724); construct: 6-His (C); made in house; host or cells: HEK-293T cells transduced with BacMam virus (virus raised in Sf9); test: Alpha-glucosidase I assay (Amplex Red glucose detection, synthetic trisaccharide substrate); assay type: biochemical; conditions: Glucosidase 1; read-out: Glu 1 IC50
Threshold 300 nM: IC50 strictly smaller gives true, otherwise false.

Quick check: does COc1cc(NCCCCCCN2C[C@H](O)[C@@H](O)[C@H](O)[C@H]2CO)cc(C2=CCCCC2)c1 [Compound 1149] have IC50 under 300 nM? true

Quick check: does OC[C@@H]1[C@@H](O)[C@H](O)[C@@H](O)CN1CCc1cn(CCNc2ccccc2)c2ccccc12 [Compound 1076] have IC50 under 300 nM? false

Quick check: does Cc1cc(NCc2ccc(CN3C[C@H](O)[C@@H](O)[C@H](O)[C@H]3CO)cc2)cc(-c2ccco2)c1 [Compound 1317] have IC50 under 300 nM? true

Quick check: does [N-]=[N+]=Nc1ccc(NCCc2cnn(CCN3C[C@H](O)[C@@H](O)[C@H](O)[C@H]3CO)c2)c([N+](=O)[O-])c1 [Compound 1191] have IC50 under 300 nM? false

Quick check: does OC[C@@H]1[C@@H](O)[C@H](O)[C@@H](O)CN1Cc1ccc(CNc2ccc(C3=COCCO3)cc2)cc1 [Compound 1093] have IC50 under 300 nM? true

Quick check: does [N-]=[N+]=Nc1ccc(NCC2COC(CN3C[C@H](O)[C@@H](O)[C@H](O)[C@H]3CO)CO2)c([N+](=O)[O-])c1 (stereo partly shown) [Compound 1280] have IC50 under 300 nM? false

----------
target: recombinant alpha-glucosidase I (human full-length glucosidase I, Glu 1) (Homo sapiens, UniProt Q13724); construct: 6-His (C); made in house; host or cells: HEK-293T cells transduced with BacMam virus (virus raised in Sf9); assay: Alpha-glucosidase I assay (Amplex Red glucose detection, synthetic trisaccharide substrate); type: biochemical; conditions: Glucosidase 1; read-out: Glu 1 IC50
pIC50: −log10 of the molar value.
Decide by pIC50: equal to or exceeding 7 means Y, less means N.

Determine whether measured pIC50 meets or exceeds 7 for Cc1cc(NCc2cccc(CN3C[C@H](O)[C@@H](O)[C@H](O)[C@H]3CO)n2)cc(-c2ccco2)c1 N

Determine whether measured pIC50 meets or exceeds 7 for Cc1cc(NCc2cccc(CN3C[C@H](O)[C@@H](O)[C@H](O)[C@H]3CO)n2)cc(N2CCOCC2)c1 N

Determine whether measured pIC50 meets or exceeds 7 for O=[N+]([O-])c1cc(-c2ncc[nH]2)ccc1NCCc1ccc(CCN2C[C@H](O)[C@@H](O)[C@H](O)[C@H]2CO)cc1 N

Determine whether measured pIC50 meets or exceeds 7 for [N-]=[N+]=Nc1ccc(NCCC23CC(CCN4C[C@H](O)[C@@H](O)[C@H](O)[C@H]4CO)(C2)C3)c([N+](=O)[O-])c1 N

Determine whether measured pIC50 meets or exceeds 7 for N#Cc1cc(NCc2ccc(CN3C[C@H](O)[C@@H](O)[C@H](O)[C@H]3CO)cc2)cc(-c2ccc[nH]2)c1 Y

Determine whether measured pIC50 meets or exceeds 7 for Cc1cc(NCc2ccc(CN3C[C@H](O)[C@@H](O)[C@H](O)[C@H]3CO)cc2)cc(C2=COCCO2)c1 Y

Determine whether measured pIC50 meets or exceeds 7 for Cc1cc(NCc2cnc(CN3C[C@H](O)[C@@H](O)[C@H](O)[C@H]3CO)cn2)cc(N2CCOCC2)c1 N

Determine whether measured pIC50 meets or exceeds 7 for O=[N+]([O-])c1cc(-c2ncccn2)ccc1NCc1cccc(CN2C[C@H](O)[C@@H](O)[C@H](O)[C@H]2CO)c1 Y

Determine whether measured pIC50 meets or exceeds 7 for [N-]=[N+]=Nc1ccc(NCc2ccc(-c3ccc(CN4C[C@H](O)[C@@H](O)[C@H](O)[C@H]4CO)cc3)cc2)c([N+](=O)[O-])c1 N

Determine whether measured pIC50 meets or exceeds 7 for COc1ccc(C#CCCCCCN2C[C@H](O)[C@@H](O)[C@H](O)[C@H]2CO)cc1 N

Determine whether measured pIC50 meets or exceeds 7 for OC[C@@H]1[C@@H](O)[C@H](O)[C@@H](O)CN1Cc1ccc(CNc2ccc(CN3CCCO3)cc2)cc1 Y

Determine whether measured pIC50 meets or exceeds 7 for OC[C@@H]1[C@@H](O)[C@H](O)[C@@H](O)CN1Cc1ccc(CNc2ccc(-c3ncccn3)cc2)cc1 Y

Determine whether measured pIC50 meets or exceeds 7 for N#Cc1cc(NCc2ccc(CN3C[C@H](O)[C@@H](O)[C@H](O)[C@H]3CO)cc2)cc(C2=COCCO2)c1 Y

Determine whether measured pIC50 meets or exceeds 7 for N#Cc1ccc(NCCCCCCN2C[C@H](O)[C@@H](O)[C@H](O)[C@H]2CO)c([N+](=O)[O-])c1 N

Determine whether measured pIC50 meets or exceeds 7 for O=[N+]([O-])c1cc(CN2CCCO2)ccc1NCCc1ccc(CCN2C[C@H](O)[C@@H](O)[C@H](O)[C@H]2CO)cc1 N

Determine whether measured pIC50 meets or exceeds 7 for Cc1cc(NCc2ccc(CN3C[C@H](O)[C@@H](O)[C@H](O)[C@H]3CO)cc2)cc(-n2nccn2)c1 Y

Determine whether measured pIC50 meets or exceeds 7 for N#Cc1cc(NCCCCCCN2C[C@H](O)[C@@H](O)[C@H](O)[C@H]2CO)cc(-c2ncccn2)c1 N

Determine whether measured pIC50 meets or exceeds 7 for OC[C@@H]1[C@@H](O)[C@H](O)[C@@H](O)CN1Cc1cccc(CNc2ccc(Br)cc2)c1 Y

Determine whether measured pIC50 meets or exceeds 7 for OC[C@@H]1[C@@H](O)[C@H](O)[C@@H](O)CN1Cc1ccc(CNc2ccc(Br)cc2)cc1 Y

Determine whether measured pIC50 meets or exceeds 7 for CS(=O)(=O)c1cc(NCc2cccc(CN3C[C@H](O)[C@@H](O)[C@H](O)[C@H]3CO)c2)cc(N2CCOCC2)c1 Y

Determine whether measured pIC50 meets or exceeds 7 for Cc1cc(NCc2cccc(CN3C[C@H](O)[C@@H](O)[C@H](O)[C@H]3CO)c2)cc(-c2cccnn2)c1 Y

Determine whether measured pIC50 meets or exceeds 7 for OC[C@@H]1[C@@H](O)[C@H](O)[C@@H](O)CN1CCCCCCNc1ccc(-c2cnccn2)cc1Cl Y
